target: EGFR wild type (EGFR WT) (Homo sapiens (Human), UniProt P00533); assay: Cellular Phosphorylation Assay, Assay 5 (EGF-stimulated EGFR phosphorylation, NIH 3T3 cells); assay type: cell-based; conditions: EGF-stimulated EGFR WT phosphorylation
Sequence (P00533 25-1210): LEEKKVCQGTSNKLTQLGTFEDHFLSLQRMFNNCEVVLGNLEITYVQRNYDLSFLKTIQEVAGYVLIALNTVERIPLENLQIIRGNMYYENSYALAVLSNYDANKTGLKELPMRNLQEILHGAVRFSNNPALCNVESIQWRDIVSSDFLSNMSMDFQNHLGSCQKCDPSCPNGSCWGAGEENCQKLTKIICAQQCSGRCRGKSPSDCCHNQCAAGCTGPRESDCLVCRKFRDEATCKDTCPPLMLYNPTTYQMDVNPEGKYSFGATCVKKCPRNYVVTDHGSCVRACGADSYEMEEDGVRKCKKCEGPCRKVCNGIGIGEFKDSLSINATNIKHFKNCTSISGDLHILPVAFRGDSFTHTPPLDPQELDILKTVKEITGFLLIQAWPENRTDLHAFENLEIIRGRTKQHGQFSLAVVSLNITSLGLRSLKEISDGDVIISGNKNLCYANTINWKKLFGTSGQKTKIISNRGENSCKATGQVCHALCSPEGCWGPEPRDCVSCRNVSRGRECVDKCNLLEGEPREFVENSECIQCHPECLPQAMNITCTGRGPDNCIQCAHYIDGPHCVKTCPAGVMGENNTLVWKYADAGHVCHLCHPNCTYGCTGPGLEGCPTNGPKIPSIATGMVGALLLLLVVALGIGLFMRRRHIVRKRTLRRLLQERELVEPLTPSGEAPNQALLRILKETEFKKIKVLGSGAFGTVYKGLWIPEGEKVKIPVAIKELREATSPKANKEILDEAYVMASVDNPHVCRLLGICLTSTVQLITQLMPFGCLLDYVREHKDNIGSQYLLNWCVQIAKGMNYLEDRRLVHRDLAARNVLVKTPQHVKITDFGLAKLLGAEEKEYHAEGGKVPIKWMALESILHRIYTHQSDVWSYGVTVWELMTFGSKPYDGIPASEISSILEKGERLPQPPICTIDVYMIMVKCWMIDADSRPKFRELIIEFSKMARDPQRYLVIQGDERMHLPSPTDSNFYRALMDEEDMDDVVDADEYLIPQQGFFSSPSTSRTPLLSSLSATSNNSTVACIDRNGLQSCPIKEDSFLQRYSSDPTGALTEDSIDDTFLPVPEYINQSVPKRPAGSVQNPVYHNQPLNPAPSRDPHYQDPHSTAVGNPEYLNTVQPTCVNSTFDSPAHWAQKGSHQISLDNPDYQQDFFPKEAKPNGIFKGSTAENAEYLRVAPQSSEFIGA
# pIC50 annotations
Keep it numeric: pIC50 is minus log10 of the concentration in mol/L.

Take a look at these entries with their results.
# pIC50 of CC#CC(=O)N1CCN(c2ccc3ncnc(Nc4ccc(Oc5ccn6ncnc6c5)c(C)c4F)c3n2)CC12CC2 [Example 182] = 5.56

# pIC50 of C=CC(=O)N1C[C@H]2CC[C@@H]1C[C@@H]2c1ccc2ncnc(Nc3ccc(Oc4ccn5ncnc5c4)c(C)c3F)c2n1 (single isomer, unassigned) [Example 234] = 6.06

# pIC50 of C=CC(=O)N1[C@@H]2CC[C@H]1C[C@H](c1ccc3ncnc(Nc4ccc(Oc5ccc6c(c5)ncn6C)c(C)c4F)c3n1)C2 [Example 195] = 5.97

# pIC50 of C=CC(=O)N1C[C@@H]2C[C@H]1CN2c1ccc2ncnc(Nc3ccc(Oc4ccc5c(c4)ncn5C)c(C)c3F)c2n1 [Example 84] = 6.60

New cases:
# pIC50 of CC#CC(=O)N1CCN(c2ccc3ncnc(Nc4ccc(Oc5ccn6ncnc6c5)c(Cl)c4F)c3n2)C[C@@H]1C(F)(F)F [Example 183] = 7.10

# pIC50 of C=CC(=O)N1CCN(c2ccc3ncnc(Nc4ccc(Oc5ccc6scnc6c5)c(C)c4F)c3n2)CC1(C)C [Example 243] = 6.18

# pIC50 of C=CC(=O)N1CCCCC(c2ccc3ncnc(Nc4ccc(Oc5ccc6c(c5)ncn6C)c(C)c4)c3n2)C1 (centres unmarked) [Example 126] = 5.75

# pIC50 of C=CC(=O)N1CCN(c2ccc3ncnc(Nc4ccc(Oc5cnc6c(c5)ncn6C)c(Cl)c4F)c3n2)CC1(C)C [Example 239] = 5.65

# pIC50 of C=CC(=O)N1CC(c2ccc3ncnc(Nc4cc(C)c(Oc5ccc6c(c5)ncn6C)cc4F)c3n2)CCC12CC2 (centres unmarked) [Example 196] = 5.70

# pIC50 of C=CC(=O)N1C2CC1CN(c1ccc3ncnc(Nc4ccc(Oc5ccn6ncnc6c5)c(Cl)c4F)c3n1)C2 [Example 25] = 6.49

# pIC50 of C=CC(=O)N1CCN(c2ccc3ncnc(Nc4ccc(Oc5ccn6ncnc6c5)c(Cl)c4F)c3n2)CC1(C)C [Example 87] = 6.75

# pIC50 of C=CC(=O)N1CCN(c2ccc3ncnc(Nc4ccc(Oc5cnc6c(c5)ncn6C)c(Cl)c4)c3n2)CC1 [Example 33] = 6.06

# pIC50 of C=CC(=O)N1C2CCC1CN(c1ccc3ncnc(Nc4ccc(Oc5ccn6ncnc6c5)c(Cl)c4F)c3n1)C2 [Example 238] = 7.04

# pIC50 of C=CC(=O)N1CCN(c2ccc3ncnc(Nc4cc(C)c(Oc5ccn6ncnc6c5)cc4F)c3n2)C[C@H]1CC [Example 164] = 6.18

---

molecular target: ErbB2 with Exon 20 YVMA insertion (HER2-YVMA) (Homo sapiens (Human), UniProt P04626, INS775YVMA); experiment: Cellular Phosphorylation Assay, Assay 4 (constitutive ErbB2 phosphorylation, NIH 3T3 cells); assay type: cell-based; settings: cellular ErbB2 YVMA phosphorylation
Sequence (P04626 other isoform, or with tags, fused parts or gaps ins YVMA behind 775): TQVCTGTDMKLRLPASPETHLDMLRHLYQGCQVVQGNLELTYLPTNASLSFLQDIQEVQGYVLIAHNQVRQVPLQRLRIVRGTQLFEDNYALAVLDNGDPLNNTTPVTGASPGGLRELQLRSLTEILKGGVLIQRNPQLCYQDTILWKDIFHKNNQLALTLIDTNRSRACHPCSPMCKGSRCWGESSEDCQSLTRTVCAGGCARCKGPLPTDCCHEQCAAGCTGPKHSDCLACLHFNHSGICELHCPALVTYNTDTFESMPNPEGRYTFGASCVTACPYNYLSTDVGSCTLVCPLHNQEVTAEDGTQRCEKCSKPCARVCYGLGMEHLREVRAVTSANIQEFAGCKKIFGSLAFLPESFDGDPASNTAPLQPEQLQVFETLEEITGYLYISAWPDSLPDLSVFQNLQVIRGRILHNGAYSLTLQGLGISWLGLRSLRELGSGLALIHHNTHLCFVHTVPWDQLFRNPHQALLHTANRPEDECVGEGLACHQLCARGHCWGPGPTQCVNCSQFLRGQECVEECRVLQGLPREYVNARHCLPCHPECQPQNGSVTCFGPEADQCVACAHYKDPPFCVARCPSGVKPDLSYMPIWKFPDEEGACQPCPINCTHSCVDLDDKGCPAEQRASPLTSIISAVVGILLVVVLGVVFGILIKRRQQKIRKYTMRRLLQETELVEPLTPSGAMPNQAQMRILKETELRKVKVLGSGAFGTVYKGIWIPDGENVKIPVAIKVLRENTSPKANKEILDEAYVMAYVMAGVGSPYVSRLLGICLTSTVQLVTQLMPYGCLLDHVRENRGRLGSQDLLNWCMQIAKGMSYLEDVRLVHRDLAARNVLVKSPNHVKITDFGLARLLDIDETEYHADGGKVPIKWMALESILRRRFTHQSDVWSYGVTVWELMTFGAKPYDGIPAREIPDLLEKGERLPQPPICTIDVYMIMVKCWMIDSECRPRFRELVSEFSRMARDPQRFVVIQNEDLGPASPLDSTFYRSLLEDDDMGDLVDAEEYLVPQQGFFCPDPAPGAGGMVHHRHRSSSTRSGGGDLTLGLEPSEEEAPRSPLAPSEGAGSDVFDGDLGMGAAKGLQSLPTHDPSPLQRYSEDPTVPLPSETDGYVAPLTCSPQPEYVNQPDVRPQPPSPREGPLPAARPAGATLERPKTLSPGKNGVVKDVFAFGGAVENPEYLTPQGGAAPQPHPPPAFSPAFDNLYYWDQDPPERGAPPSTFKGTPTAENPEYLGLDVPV
endpoint.label: pIC50
Keep it numeric: pIC50 is minus log10 of the concentration in mol/L.

Take a look at these entries with their results.
# pIC50 of C=CC(=O)N1CC2CCC(C1)N2c1ccc2ncnc(Nc3ccc(Oc4ccn5ncnc5c4)c(Cl)c3F)c2n1 [Example 445] = 8.24

# pIC50 of C=CC(=O)N1C[C@@H]2CC[C@H]1CN2c1ccc2ncnc(Nc3cc(C)c(Oc4ccn5ncnc5c4)cc3F)c2n1 [Example 319] = 8.24

# pIC50 of C=CC(=O)N1C2CC1CN(c1ccc3ncnc(Nc4ccc(Oc5cnc6c(c5)ncn6C)c(C)c4F)c3n1)C2 [Example 438] = 8.01

# pIC50 of CC#CC(=O)N1CC[C@@H]2C[C@H]1CN2c1ccc2ncnc(Nc3cc(Cl)c(Oc4ccn5ncnc5c4)cc3F)c2n1 [Example 315] = 7.16

# pIC50 of C=CC(=O)N1CCN(c2ccc3ncnc(Nc4cc(C)c(Oc5ccc6c(c5)ncn6C)cc4F)c3n2)C[C@H]1C(C)C [Example 254] = 7.63

New cases:
# pIC50 of C=CC(=O)N1CC2CC(C1)N2c1ccc2ncnc(Nc3cc(C)c(Oc4ccn5ncnc5c4)cc3F)c2n1 [Example 336] = 7.30

# pIC50 of C=CC(=O)N1CCC12CN(c1ccc3ncnc(Nc4cc(C)c(Oc5ccn6ncnc6c5)cc4F)c3n1)C2 [Example 361] = 8.10

---

biological target: EGFR wild type (EGFR WT) (Homo sapiens (Human), UniProt P00533); assay: Cellular Phosphorylation Assay, Assay 5 (EGF-stimulated EGFR phosphorylation, NIH 3T3 cells); assay type: cell-based; settings: cellular EGFR WT phosphorylation, EGF-stimulated
# note: exactly 500 nM is not below, so it is False; use True for IC50 strictly under it

Here's what some known entries look like.
In plain terms, does C=CC(=O)N1C[C@H]2C[C@@H]1CN(c1ccc3ncnc(Nc4ccc(Oc5ccn6ncnc6c5)c(Cl)c4F)c3n1)C2 come in under 500 nM for IC50?
False

In plain terms, does C=CC(=O)N1[C@H]2CC[C@@H]1[C@H](c1ccc3ncnc(Nc4cc(C)c(Oc5ccn6ncnc6c5)cc4F)c3n1)CC2 come in under 500 nM for IC50?
False

In plain terms, does C=CC(=O)N1CC[C@@H]2C[C@H]1CN2c1ccc2ncnc(Nc3ccc(Oc4cnc5c(c4)ncn5C)c(C)c3F)c2n1 come in under 500 nM for IC50?
True

In plain terms, does C=CC(=O)N1CCCC(c2ccc3ncnc(Nc4cc(C)c(Oc5ccn6ncnc6c5)cc4F)c3n2)CC1 (stereo not shown) come in under 500 nM for IC50?
False

New cases:
In plain terms, does C=CC(=O)N1CCCC(c2ccc3ncnc(Nc4ccc(Oc5ccn6ncnc6c5)c(Cl)c4F)c3n2)CC1 (stereo not shown) come in under 500 nM for IC50?
True

In plain terms, does C=CC(=O)N1CCN(c2ccc3ncnc(Nc4cc(Cl)c(Oc5ccn6ncnc6c5)cc4F)c3n2)CC1(C)C come in under 500 nM for IC50?
False

In plain terms, does C=CC(=O)N1CCN(c2ccc3ncnc(Nc4cc(F)c(Oc5ccn6ncnc6c5)cc4F)c3n2)CC1(C)C come in under 500 nM for IC50?
False

---

target: ErbB2 with Exon 20 YVMA insertion (HER2-YVMA) (Homo sapiens (Human), UniProt P04626, INS775YVMA); assay: Cellular Phosphorylation Assay, Assay 4 (constitutive ErbB2 phosphorylation, NIH 3T3 cells); format: cell-based; conditions: ErbB2 YVMA phosphorylation
endpoint.label: pIC50
Keep it numeric: pIC50 is minus log10 of the concentration in mol/L.

Take a look at these entries with their results.
# pIC50 of C=CC(=O)N1CCC(c2ccc3ncnc(Nc4ccc(Oc5ccc6c(c5)ncn6C)c(C)c4)c3n2)CC1 = 8.02

# pIC50 of C=CC(=O)N1CCC(Oc2nc3c(Nc4ccc(Oc5ccn6ncnc6c5)c(Cl)c4F)ncnc3cc2OC)CC1 = 8.28

# pIC50 of C=CC(=O)N1C2CCC1CC(c1ccc3ncnc(Nc4ccc(Oc5ccc6c(c5)ncn6C)c(C)c4)c3n1)C2 (stereo not drawn) = 7.89

New cases:
# pIC50 of C=CC(=O)N1C[C@@H]2CC[C@H]1C[C@H]2c1ccc2ncnc(Nc3ccc(Oc4ccn5ncnc5c4)c(C)c3F)c2n1 (single isomer, unassigned) = 7.04

# pIC50 of C=CC(=O)N1CCC(Oc2ccc3ncnc(Nc4ccc(Oc5ccn6ncnc6c5)c(Cl)c4F)c3n2)CC1 = 8.40

# pIC50 of C=C(F)C(=O)N1CCN(c2ccc3ncnc(Nc4ccc(Oc5ccn6ncnc6c5)c(C)c4F)c3n2)CC1 = 6.50

# pIC50 of C=CC(=O)N1CCC2CN(c3nc4c(Nc5ccc(Oc6ccn7ncnc7c6)c(Cl)c5F)ncnc4cc3OC)CC21 (stereo not drawn) = 7.65

# pIC50 of C=CC(=O)N1CCC(Oc2ccc3ncnc(Nc4ccc(Oc5cnn6c(C)cnc6c5)c(Cl)c4F)c3n2)CC1 = 7.39

# pIC50 of C=CC(=O)N1CC2(C1)CN(c1ccc3ncnc(Nc4ccc(Oc5ccn6ncnc6c5)c(Cl)c4F)c3n1)C2 = 7.49

# pIC50 of C=CC(=O)N1C[C@H]2CC[C@@H](C1)[C@@H]2c1ccc2ncnc(Nc3ccc(Oc4ccn5ncnc5c4)c(C)c3F)c2n1 = 6.84

# pIC50 of C=CC(=O)N1CCN(c2ccc3ncnc(Nc4ccc(Oc5ccn6ncnc6c5)c(C)c4F)c3n2)C[C@H]1C = 7.96

# pIC50 of C=CC(=O)N1C[C@H](c2ccc3ncnc(Nc4ccc(Oc5ccc6c(c5)ncn6C)c(C)c4F)c3n2)CCC1(C)C (racemic) = 7.72

# pIC50 of C=CC(=O)N1CC[C@H]2C[C@@H](c3ccc4ncnc(Nc5ccc(Oc6ccc7c(c6)ncn7C)c(C)c5F)c4n3)C[C@H]21 (racemic) = 7.47
